procedure details: Half life in PBS buffer at pH 7.4 measured upto 72 hrs by LC/MS analysis
Assay type: physicochemical
property measured: half-life (h)
Just the number please, in h, no unit attached.

Notebook: Nc1nccn1C[C@@H](NC(=O)c1cc2sc(Cl)c(Cl)c2[nH]1)C(=O)Nc1ccc(COC(=O)Nc2ccn([C@@H]3O[C@H](CO)[C@@H](O)C3(F)F)c(=O)n2)cc1 , half-life read as 40

###

procedure details: Stability of compound in human MIA Paca-2 cells homogenates assessed as drug degradation incubated for 6 hrs by LC/MS analysis
Type: ADME, cell-based
measurement parameters: MIA PaCa-2 cell homogenates, read-out: Drug degradation
property measured: metabolised at 6 h

Notebook: Nc1ccn([C@@H]2O[C@H](COC(=O)[C@H](Cn3ccnc3[N+](=O)[O-])NC(=O)c3cc4sc(Cl)c(Cl)c4[nH]3)[C@@H](O)C2(F)F)c(=O)n1 , metabolised at 6 h read as > 50%
